Molecular target: HCV NS5B polymerase (NS5BΔCT21) (Hepatitis C virus genotype 1b, UniProt Q9WMX2)
Construct: A soluble C-terminal 21-amino acid truncated NS5B enzyme form; polyhistidine (C)
Experiment: HCV NS5B Polymerase Inhibition Assay
Source text: A chemically synthesized 75-mer version, designated DCoH75, whose sequence matches the 3′-end of D-RNA, and DCoH75ddC, where the 3′-terminal cytidine of DCoH75 is replaced by dideoxycytidine, were used for assaying the NS5B enzyme activity as described in Ferrari et al., 12th International Symposium on HCV and Related Viruses, P-306 (2005). […] Polynucleotide synthesis was monitored by the incorporation of radiolabeled CTP. […]

MOLECULE | RESULT_COMPARATOR | IC50 [µM]
CC(C)c1ccc(NC(=O)c2ccnc(NC(=O)C(C)(C)C)c2)c(N2CCN(c3cnccn3)CC2)c1 | > | 20
COc1ncccc1C(=O)Nc1ccc(C(C)C)cc1N1CCN(c2cnccn2)CC1 | > | 20
CC(C)c1ccc(NC(=O)C2CCOCC2)c(N2CCN(c3cnccn3)CC2)c1 | > | 20
CC(C)c1ccc(NC(=O)c2cnccc2C(F)(F)F)c(N2CCN(c3cnccn3)CC2)c1 | > | 20
CC(C)c1ccc(NC(=O)c2cccnc2)c(N2CCN(C(=O)CN(C)C)CC2)c1 | > | 200
CC(C)c1ccc(NC(=O)c2ccsc2)c(N2CCN(c3cnccn3)CC2)c1 | = | 7
CC(C)c1ccc(NC(=O)c2cccnc2-c2ccccc2)c(N2CCN(c3cnccn3)CC2)c1 | > | 200
Cc1oncc1C(=O)Nc1ccc(C(C)C)cc1N1CCN(c2cnccn2)CC1 | = | 13
Cc1nc(Br)sc1C(=O)Nc1ccc(C(C)C)cc1N1CCN(c2cnccn2)CC1 | = | 3
CNCC(=O)N1CCN(c2cc(C(C)C)ccc2NC(=O)c2cccnc2)CC1 | > | 200
CC(C)c1ccc(NC(=O)c2ccnnc2)c(N2CCN(c3cnccn3)CC2)c1 | > | 20
Cc1c(F)cc(F)cc1C(=O)Nc1ccc(C(C)C)cc1N1CCN(c2cnccn2)CC1 | = | 0.54
CC(C)c1ccc(NC(=O)c2cccnc2N)c(N2CCN(c3cnccn3)CC2)c1 | = | 1
CC(C)c1ccc(NC(=O)c2cccnc2)c(N2CCN(c3ncccn3)CC2)c1 | = | 2.3
Cc1ncccc1C(=O)Nc1ccc(C(C)C)cc1N1CCN(c2cncc(C3CC3)n2)CC1 | = | 1
Cc1nccc(N2CCN(c3cc(C(C)C)ccc3NC(=O)c3cccnc3)CC2)n1 | = | 0.16
CC(C)c1ccc(NC(=O)c2cccnc2F)c(N2CCN(c3cnccn3)CC2)c1 | = | 2.2
CC(C)c1ccc(NC(=O)C2CCCNC2)c(N2CCN(c3cnccn3)CC2)c1 (stereo not drawn) | > | 200
